Recorded values, source paper PMC7470945.

System: T1, SBDSco E156L (Streptomyces coelicolor, UniProt Q9L0M9 90-250, E156L)
T1 sequence: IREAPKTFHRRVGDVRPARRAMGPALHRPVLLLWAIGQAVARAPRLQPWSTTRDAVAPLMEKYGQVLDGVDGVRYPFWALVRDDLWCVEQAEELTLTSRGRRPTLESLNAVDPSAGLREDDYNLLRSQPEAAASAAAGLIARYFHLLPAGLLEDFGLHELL
Test summary: fluorescence polarization; FP: 20 mM Tris-HCl pH 8.0, 50 mM NaCl, 5% glycerol, 1 mM DTT, 5 nM probe, room temperature; EMSA: 20 mM Tris-HCl pH 8.0, 100 mM NaCl, 5% glycerol, room temperature, protein 4x DNA
Condition context: protein: recombinant; tags: 6xHis; label: 5'-FAM on one strand (FP); blunt
pKd: −log10 of the molar value.
Endpoint label: pKd

Binder: PT-GATC-10 RP (hemi-PT) (dsDNA, RP phosphorothioate between G4 and A5 of strand 1) DNA 1: GATGATCCTA DNA 2: TAGGATCATC
Endpoint label: pKd
Result: 6.10
--
Binder: PT-GAAC-10 RP (hemi-PT) (dsDNA, RP phosphorothioate between G4 and A5 of strand 1) DNA 1: GGCGAACGTG DNA 2: CACGTTCGCC
Endpoint label: pKd
Result: 6.30
